# Target System: T1, human CD28, full-length, expressed on transfected Expi293 cells (human, UniProt P10747 19-220)
# T1 construct: whole, on cells
# Method Notes: flow cytometry, 100 nM, Expi293 cells with human CD28
Tag: Criterion met if measured MFI ratio to WT (ΔWT) is not below 6 fold, Criterion not met if it is.

>  <Binder>
variant ICOSL IgV-Fc fusion N52G/N57V (Fc fusion) DTQEKEVRAMVGSDVELSCACPEGSRFDLNDVYVYWQTSESKTVVTYHIPQGSSLEVVDSRYRNRALMSPAGMLRGDFSLRLFNVTPQDEQKFHCLVLSQSLGFQEVLSVEVTLHVAANFSVGSGGGGSEPKSSDKTHTCPPCPAPEAEGAPSVFLFPPKPKDTLMISRTPEVTCVVVDVSHEDPEVKFNWYVDGVEVHNAKTKPREEQYNSTYRVVSVLTVLHQDWLNGKEYKCKVSNKALPAPIEKTISKAKGQPREPQVYTLPPSREEMTKNQVSLTCLVKGFYPSDIAVEWESNGQPENNYKTTPPVLDSDGSFFLYSKLTVDKSRWQQGNVFSCSVMHEALHNHYTQKSLSLSPG

>  <Class Assignment>
Criterion not met

$$$$
>  <Binder>
variant ICOSL IgV-Fc fusion N52L/N57V (Fc fusion) DTQEKEVRAMVGSDVELSCACPEGSRFDLNDVYVYWQTSESKTVVTYHIPQLSSLEVVDSRYRNRALMSPAGMLRGDFSLRLFNVTPQDEQKFHCLVLSQSLGFQEVLSVEVTLHVAANFSVGSGGGGSEPKSSDKTHTCPPCPAPEAEGAPSVFLFPPKPKDTLMISRTPEVTCVVVDVSHEDPEVKFNWYVDGVEVHNAKTKPREEQYNSTYRVVSVLTVLHQDWLNGKEYKCKVSNKALPAPIEKTISKAKGQPREPQVYTLPPSREEMTKNQVSLTCLVKGFYPSDIAVEWESNGQPENNYKTTPPVLDSDGSFFLYSKLTVDKSRWQQGNVFSCSVMHEALHNHYTQKSLSLSPG

>  <Class Assignment>
Criterion not met

$$$$
>  <Binder>
variant ICOSL IgV-Fc fusion N52P/N57S/Q100G (Fc fusion) DTQEKEVRAMVGSDVELSCACPEGSRFDLNDVYVYWQTSESKTVVTYHIPQPSSLESVDSRYRNRALMSPAGMLRGDFSLRLFNVTPQDEQKFHCLVLSGSLGFQEVLSVEVTLHVAANFSVGSGGGGSEPKSSDKTHTCPPCPAPEAEGAPSVFLFPPKPKDTLMISRTPEVTCVVVDVSHEDPEVKFNWYVDGVEVHNAKTKPREEQYNSTYRVVSVLTVLHQDWLNGKEYKCKVSNKALPAPIEKTISKAKGQPREPQVYTLPPSREEMTKNQVSLTCLVKGFYPSDIAVEWESNGQPENNYKTTPPVLDSDGSFFLYSKLTVDKSRWQQGNVFSCSVMHEALHNHYTQKSLSLSPG

>  <Class Assignment>
Criterion not met

$$$$
>  <Binder>
variant ICOSL IgV-Fc fusion N52R/N57Y/Q100R (Fc fusion) DTQEKEVRAMVGSDVELSCACPEGSRFDLNDVYVYWQTSESKTVVTYHIPQRSSLEYVDSRYRNRALMSPAGMLRGDFSLRLFNVTPQDEQKFHCLVLSRSLGFQEVLSVEVTLHVAANFSVGSGGGGSEPKSSDKTHTCPPCPAPEAEGAPSVFLFPPKPKDTLMISRTPEVTCVVVDVSHEDPEVKFNWYVDGVEVHNAKTKPREEQYNSTYRVVSVLTVLHQDWLNGKEYKCKVSNKALPAPIEKTISKAKGQPREPQVYTLPPSREEMTKNQVSLTCLVKGFYPSDIAVEWESNGQPENNYKTTPPVLDSDGSFFLYSKLTVDKSRWQQGNVFSCSVMHEALHNHYTQKSLSLSPG

>  <Class Assignment>
Criterion not met

$$$$
>  <Binder>
variant ICOSL ECD-Fc fusion, full length N52H/N57Y/Q100R/F172S (Fc fusion, not shown: a dimerising Fc or GST) DTQEKEVRAMVGSDVELSCACPEGSRFDLNDVYVYWQTSESKTVVTYHIPQHSSLEYVDSRYRNRALMSPAGMLRGDFSLRLFNVTPQDEQKFHCLVLSRSLGFQEVLSVEVTLHVAANFSVPVVSAPHSPSQDELTFTCTSINGYPRPNVYWINKTDNSLLDQALQNDTVSLNMRGLYDVVSVLRIARTPSVNIGCCIENVLLQQNLTVGSQTGNDIGERDKITENPVSTGEKNAAT

>  <Class Assignment>
Criterion met

$$$$
>  <Binder>
variant ICOSL IgV-Fc fusion N52H/N57Y/Q100R (Fc fusion, not shown: a dimerising Fc or GST) DTQEKEVRAMVGSDVELSCACPEGSRFDLNDVYVYWQTSESKTVVTYHIPQHSSLEYVDSRYRNRALMSPAGMLRGDFSLRLFNVTPQDEQKFHCLVLSRSLGFQEVLSVEVTLHVAANFSV

>  <Class Assignment>
Criterion met

$$$$
>  <Binder>
variant ICOSL IgV-Fc fusion N52S/N57Y/Q100S (Fc fusion) DTQEKEVRAMVGSDVELSCACPEGSRFDLNDVYVYWQTSESKTVVTYHIPQSSSLEYVDSRYRNRALMSPAGMLRGDFSLRLFNVTPQDEQKFHCLVLSSSLGFQEVLSVEVTLHVAANFSVGSGGGGSEPKSSDKTHTCPPCPAPEAEGAPSVFLFPPKPKDTLMISRTPEVTCVVVDVSHEDPEVKFNWYVDGVEVHNAKTKPREEQYNSTYRVVSVLTVLHQDWLNGKEYKCKVSNKALPAPIEKTISKAKGQPREPQVYTLPPSREEMTKNQVSLTCLVKGFYPSDIAVEWESNGQPENNYKTTPPVLDSDGSFFLYSKLTVDKSRWQQGNVFSCSVMHEALHNHYTQKSLSLSPG

>  <Class Assignment>
Criterion met

$$$$
